- System: OM-1 (colon)
- ASSAY_PROCEDURE: Radiometric growth inhibition of tumor cells, OM-1
- Format: cell-based, human
- PARTICULARS: Homo sapiens; OM-1; concentration required to kill 50%; read-out: IC 50
PROPERTY_NAME: IC50 (µg/mL)
Answers are plain numbers, in µg/mL.

Value of measured IC50 for the entry NC1=N[C@@H]2O[C@@H](CO)[C@H](O)[C@@H]2O1 : 0.026

Value of measured IC50 for the entry O=c1[nH]c(=S)ccn1[C@@H]1C[C@@H](O)[C@H](CO)O1 : 34.3

Value of measured IC50 for the entry NC1=N[C@H]2O[C@@H](CO)[C@H](O)[C@H]2O1 : 5

We next turn to a different compound, shown below.
Value of measured IC50 for the entry O=c1[nH]c(=O)n([C@H]2O[C@@H](CO)[C@H](O)[C@@H]2O)cc1F : 37.8
